Recorded MIC values for a group of compounds are listed next.
Tested on: Streptococcus pneumoniae
Experiment description: Antibacterial activity against penicillin-susceptible Gram-positive Streptococcus pneumoniae S-223 after 18 hrs by agar dilution method
Format: functional
Experimental context: S-223, 18 h
Measure name: MIC (µg/mL)

CC[C@H]1OC(=O)[C@H](C)[C@@H](O[C@H]2C[C@@](C)(OC)[C@@H](O)[C@H](C)O2)[C@H](C)[C@@H](O[C@@H]2O[C@H](C)C[C@H](N(C)C)[C@H]2O)[C@](C)(O)C[C@@H](C)CN(C)[C@H](C)[C@@H](O)[C@]1(C)O [AZITHROMYCIN] | 0.25
CC[C@H]1OC(=O)CC[C@H](C)[C@@H](O[C@@H]2O[C@H](C)C[C@H](N(C)C)[C@H]2O)[C@@H](CC=O)C[C@@H](C)N(C)C/C=C/C(C)=C/[C@@H]1CO | 16
CC[C@H]1OC(=O)CC[C@H](C)[C@@H](O[C@@H]2O[C@H](C)C[C@H](N(C)C)[C@H]2O)[C@@H](CC=O)C[C@@H](C)CN(C)CC/C(C)=C/[C@@H]1CO | 8
CC[C@H]1OC(=O)CC[C@H](C)[C@@H](O[C@@H]2O[C@H](C)C[C@H](N(C)C)[C@H]2O)[C@@H](CC=O)C[C@@H](C)N(C)CCC/C(C)=C/[C@@H]1CO | 8
CC[C@H]1OC(=O)CC[C@H](C)[C@@H](O[C@@H]2O[C@H](C)C[C@H](N(C)C)[C@H]2O)[C@@H](CC=O)C[C@@H](C)C(=O)/C=C/C(C)=C/[C@@H]1CO | 0.25
